Target: Mitogen-activated protein kinase 10 (Mus musculus)
Experiment: JNK3 AlphaScreen Assay (AID 530);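 note: kinase came from lysate of stimulated human HepG2 cells; signal reports phosphorylation of biotinylated GST-cJun 1-79 at Ser73 with 10 µM ATP; % is set by controls: 0 for no effect and ±100 for the full control effect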
Conditions: JNK3 lysate, c-Jun phosphorylation; series mostly up to 57.1 µM
Records with an inconclusive call do not appear. Activity calls are given as the source filed them. Calls come from the whole dose curve; as a rule, active = well fitted curve in either direction with a large enough effect (not every such curve was filed as active); inconclusive = small, poorly fitted or top-dose-only effect, or another doubt; inactive = flat fitted curve, though single readings scatter.
MEASUREMENT_TYPE: activity change, negative = inhibition

See these solved cases before continuing.
> print(dat)
                                   compound                               measured.on                        reading
1                     Cc1ccccc1[N+](=O)[O-]  Mitogen-activated protein kinase 10 (Mus musculus)                       inactive
2  CCN(CC)c1ncnc2c1ncn2[C@@H]1O[C@@H](COP(=O)(O)OP(=O)(O)C(Br)(Br)P(=O)(O)O)[C@H](O)[C@@H]1O  Mitogen-activated protein kinase 10 (Mus musculus)                       inactive
3      Cc1coc2c1CCC(C)C2 (stereo not given)  Mitogen-activated protein kinase 10 (Mus musculus)                       inactive
4  COc1cc2cc(c1Cl)N(C)C(=O)C[C@H](OC(=O)C(C)C)[C@]1(C)O[C@@H]1[C@@H](C)[C@H]1C[C@](O)(NC(=O)O1)[C@@H](OC)/C=C\C=C(\C)C2  Mitogen-activated protein kinase 10 (Mus musculus)  2.93% [at 11.4 µM] (inactive)

List the reported activity change, negative = inhibition of each compound below.
1. O=S(=O)(Cl)c1ccccc1
2. Cc1ccc(O)cc1 (tested in a mixture with another compound)
3. C(CCOCC1CO1)COCC1CO1 (stereo not given)
4. C/C=C/CC#N
5. O=[N+]([O-])c1cccc(O)c1
6. c1cc(CCN2CCCCC2)ccn1

["inactive", "1.19% [at 11.4 µM] (inactive)", "inactive", "inactive", "inactive", "1.02% [at 11.4 µM] (inactive)"]

----------
Test: qHTS assay for small molecule disruptors of the mitochondrial membrane potential - 5 hr assay (AID 651755); note: nearly all actives have a fitted effect of over 40% in size
Conditions: JC-1-type ratio dye; series mostly up to 92.2 µM
Text: National Center for Advancing Translational Sciences [NCATS] NIH Chemical Genomics Center [NCGC] National Institutes of Environmental Health Sciences [NIEHS] National Toxicology Program [NTP] Mitochondrial membrane potential (MMP), one of the parameters for mitochondrial function, is generated by mitochondrial electron transport chain that creates an electrochemical gradient by a series of redox reactions. […] The dye accumulates in the mitochondria of healthy cells as aggregates, with red fluorescence. […]
Records with an inconclusive call do not appear. Calls of active or inactive are those of the source. The call rests on the fitted dose curve.
Write down one outcome, taken from active, inactive

Reference set (2 entries):
> print(dat)
           compound  label.class
1   CCC[N+](=O)[O-]     inactive
2  OC[P+](CO)(CO)CO     inactive

What classification did "CCCCCOC(=O)c1ccccc1C(=O)OCCCCC" end up with in this test?
inactive

Per the records of this test, what outcome belongs to c1ccc(C2CO2)cc1 (centres undefined) ?
inactive

Assay result, entry "C=CCBr" — outcome?
inactive

// param item: "Oc1cc(Cl)c(Cl)c(Cl)c1" ; yields the recorded call
active

From: PubChem BioAssay (NCATS)
